// reported AC50 per item
biological target: Cytochrome P450 2C19 (Homo sapiens); assay: Cytochrome panel assay with activity outcomes. Panel member name: p450-cyp2c19 Compounds with AC50 equal or less than 10 uM are considered active; type: functional; conditions: read-out: AC50
Sequence (P33261 whole entry): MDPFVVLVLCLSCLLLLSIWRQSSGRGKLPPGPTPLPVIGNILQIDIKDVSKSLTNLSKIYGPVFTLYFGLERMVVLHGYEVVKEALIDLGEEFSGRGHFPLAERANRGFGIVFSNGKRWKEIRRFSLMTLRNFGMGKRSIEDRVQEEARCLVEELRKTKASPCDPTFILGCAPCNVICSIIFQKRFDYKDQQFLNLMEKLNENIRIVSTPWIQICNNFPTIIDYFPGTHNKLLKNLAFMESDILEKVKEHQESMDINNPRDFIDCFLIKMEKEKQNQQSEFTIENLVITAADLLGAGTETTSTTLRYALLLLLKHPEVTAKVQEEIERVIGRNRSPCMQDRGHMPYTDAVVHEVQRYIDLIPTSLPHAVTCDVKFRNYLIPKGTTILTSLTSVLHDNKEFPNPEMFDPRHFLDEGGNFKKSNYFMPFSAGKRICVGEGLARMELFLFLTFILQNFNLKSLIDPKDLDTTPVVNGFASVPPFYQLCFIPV

Use these answered entries as a reference point.
>>> print(df.to_string())
                                   compound                       assayed_target                  result
0        O=C(CNC(=O)c1ccccn1)N/N=C/c1ccccc1  Cytochrome P450 2C19 (Homo sapiens)  17.8 µM (inconclusive)
1  Cn1c(C(=O)O)c(CC(=O)NCC2COc3ccccc3O2)c2ccccc21 (stereo not given)  Cytochrome P450 2C19 (Homo sapiens)  25.1 µM (inconclusive)
2    O=c1c2ccccc2nc(N2CCCC2)n1-c1ccc(Cl)cc1  Cytochrome P450 2C19 (Homo sapiens)  1.26 µM (inconclusive)

Problem: Recorded AC50 of `CCOC(=O)CSc1nnc(NC(=O)c2cccc(S(=O)(=O)N3CCCCCC3)c2)s1` , please.
Solution: 2 µM (inconclusive)

Problem: Report AC50 for Cc1cc(C)cc(C(=O)OC2C[C@H]3CC[C@@H](C2)N3C)c1 (stereo not given in full) please.
Solution: 39.8 µM (inconclusive)

Problem: AC50 for `Fc1nc(N2CCCC2)c(F)c(Oc2ccccc2Oc2c(F)c(F)nc(N3CCCC3)c2F)c1F` ?
Solution: 5.62 µM (inconclusive)

Problem: Please give the measured AC50 for this compound: `O=c1c(-c2cc(F)cc(F)c2)nc2cnc(N3CCNCC3)nc2n1Cc1cccs1`
Solution: 39.8 µM (inconclusive)

Problem: Which AC50 value is on record for CCN1C(=O)C(O)(CC(=O)/C=C/C=C/c2ccccc2)c2ccccc21 (stereo not given) ?
Solution: 35.5 µM (inconclusive)

Problem: Quick one: AC50 for `O=C(Nc1cccn2ncnc12)c1ccc(Cl)cc1Cl` ?
Solution: 11.2 µM (inconclusive)

Problem: AC50 for `COc1ccc(-c2cnnc(CCCn3ccnc3-c3ccccc3)n2)cc1` ?
Solution: 7.94 µM (inconclusive)

---

Entries annotated with measured IC50
Biological target: Carboxy-terminal domain RNA polymerase II polypeptide A small phosphatase 1 (Homo sapiens)
Sequence (Q9GZU7 whole entry): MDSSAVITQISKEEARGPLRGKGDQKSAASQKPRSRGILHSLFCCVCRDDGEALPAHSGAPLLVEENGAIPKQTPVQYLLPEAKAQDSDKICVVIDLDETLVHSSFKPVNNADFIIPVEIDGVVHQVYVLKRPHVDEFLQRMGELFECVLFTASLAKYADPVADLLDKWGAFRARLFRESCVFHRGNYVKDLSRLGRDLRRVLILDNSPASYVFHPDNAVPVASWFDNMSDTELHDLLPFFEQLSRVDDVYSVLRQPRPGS
Test: CTDSP1 inhibitors, concentration-response, biochemical, absorbance readout, ultra-high-throughput screen actives (AID 540297)
Format: functional
Calls of active or inactive are those of the source.

Example results:
>>> print(df.to_string())
                                 cpd_smiles  readout_label            result
0  O=C(CCN1C(=O)S/C(=C\c2ccc(Cl)cc2)C1=O)Nc1ccc(C(=O)O)cc1           IC50  6.17 µM (active)
1  O=C(CCN1C(=O)/C(=C/c2ccc(Cl)cc2)SC1=S)Nc1ccc(C(=O)O)cc1           IC50  2.64 µM (active)

Problem: Give Carboxy-terminal domain RNA polymerase II polypeptide A small phosphatase 1 (Homo sapiens) IC50 for `O=C(O)c1cnc2c([N+](=O)[O-])cccc2c1O`
Solution: 5.65 µM (active)

Problem: Find the measured IC50: item `O=C(CSc1nc2ccccc2c(=O)n1-c1ccccc1)NC(=O)CN1CCCC1=O` , target or system Carboxy-terminal domain RNA polymerase II polypeptide A small phosphatase 1 (Homo sapiens).
Solution: 8.75 µM (active)
